Conditions: mouse plasma, 5 hours

| Compound | Plasma stability % remaining (in mice) [%] |
| --- | --- |
| COc1ccccc1C1C2=C(CC(C)(C)CC2=O)Nc2n[nH]c(C)c21 (racemic) | 87.2 |
| CC1(C)CC(=O)C2=C(C1)Nc1n[nH]c(C3CC3)c1C2(C)c1ccccc1 (racemic) | 90.5 |
| Cc1[nH]nc2c1C(C)(c1cccc(C#N)c1)C1=C(CC(C)(C)CC1=O)N2 (racemic) | 99.0 |
| Cc1[nH]nc2c1C(C)(c1ccccc1)C1=C(CC(C)(C)CC1=O)N2 (stereo not shown) | 99.7 |
| COc1ccccc1[C@@H]1C2=C(CC(C)(C)CC2=O)Nc2n[nH]c(C(F)(F)F)c21 | 99 |
| CC1(C)CC(=O)C2=C(C1)Nc1n[nH]cc1[C@]2(C)c1ccccc1 (stereo in doubt) | 96.6 |
| COc1ccccc1C1C2=C(CC(C)(C)CC2=O)Nc2n[nH]c(C(F)(F)F)c21 (racemic) | 98.7 |

----------
Target: GSK3β (Homo sapiens (Human), UniProt P49841)
Sequence (P49841 whole entry): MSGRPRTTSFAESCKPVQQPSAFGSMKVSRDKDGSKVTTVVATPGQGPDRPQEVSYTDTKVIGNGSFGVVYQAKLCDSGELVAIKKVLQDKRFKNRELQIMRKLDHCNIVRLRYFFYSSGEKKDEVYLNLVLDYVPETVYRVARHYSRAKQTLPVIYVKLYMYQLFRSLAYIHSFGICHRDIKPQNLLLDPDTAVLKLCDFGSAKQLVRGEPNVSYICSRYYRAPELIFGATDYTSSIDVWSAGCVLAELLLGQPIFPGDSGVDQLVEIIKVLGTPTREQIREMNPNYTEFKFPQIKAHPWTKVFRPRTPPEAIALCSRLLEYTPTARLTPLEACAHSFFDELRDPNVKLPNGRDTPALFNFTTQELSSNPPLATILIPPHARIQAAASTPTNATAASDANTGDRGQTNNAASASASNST
Assay: biochemical
Here the recorded IC50 is given for each entry.
Measured Parameter: IC50

| Molecule | Val |
| --- | --- |
| COc1ccccc1C1C2=C(CC(C)(C)CC2=O)Nc2n[nH]c(C)c21 (racemic) | < 100 nM |
| Cc1[nH]nc2c1C(c1ccc(F)cc1Cl)C1=C(CC(C)(C)CC1=O)N2 (centres unmarked) | 101 to 1000 nM |
| Cc1[nH]nc2c1C(c1ccsc1)C1=C(CC(C)(C)CC1=O)N2 (centres unmarked) | 101 to 1000 nM |
| Cc1[nH]nc2c1C(c1ccc(Br)cn1)C1=C(CC(C)(C)CC1=O)N2 (centres unmarked) | 1000 to 5000 nM |
| CC1(C)CC(=O)C2=C(C1)Nc1n[nH]c(C#N)c1C2c1ccccc1 (centres unmarked) | 101 to 1000 nM |
| Cc1[nH]nc2c1[C@@H](c1cccs1)C1=C(CC(C)(C)CC1=O)N2 (racemic) | 1000 to 5000 nM |
| CC1(C)CC(=O)C2=C(C1)Nc1n[nH]c(C3CC(F)(F)C3)c1C2(C)c1ccccc1 (racemic) | 101 to 1000 nM |
| Cc1[nH]nc2c1C(c1ccc(Cl)cc1)C1=C(CC(C)(C)CC1=O)N2 (centres unmarked) | 1000 to 5000 nM |

----------
Target: GSK3β (Homo sapiens (Human))
Assay: biochemical
Measured Parameter: IC50 (nM)

| Smiles Input | Measured Parameter | Val |
| --- | --- | --- |
| COc1ccccc1[C@@H]1C2=C(CC(C)(C)CC2=O)Nc2n[nH]c(C(F)(F)F)c21 | IC50 | 12 |

----------
Target: GSK3α (Homo sapiens (Human))
Sequence (P49840 whole entry): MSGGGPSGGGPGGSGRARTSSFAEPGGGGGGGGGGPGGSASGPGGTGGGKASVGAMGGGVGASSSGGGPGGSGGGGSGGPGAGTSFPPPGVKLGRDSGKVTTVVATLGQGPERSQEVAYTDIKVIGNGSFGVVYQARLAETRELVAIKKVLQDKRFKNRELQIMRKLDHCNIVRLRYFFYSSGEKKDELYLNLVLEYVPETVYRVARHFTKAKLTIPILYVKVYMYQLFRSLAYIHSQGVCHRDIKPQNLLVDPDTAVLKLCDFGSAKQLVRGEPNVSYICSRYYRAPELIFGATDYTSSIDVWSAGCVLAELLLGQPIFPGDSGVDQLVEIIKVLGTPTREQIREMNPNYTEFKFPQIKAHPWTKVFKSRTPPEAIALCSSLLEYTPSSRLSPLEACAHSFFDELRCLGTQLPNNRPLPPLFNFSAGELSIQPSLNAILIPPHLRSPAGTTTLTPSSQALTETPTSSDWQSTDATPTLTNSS
Assay: biochemical

| Smiles Input | IC50 |
| --- | --- |
| COc1ccccc1[C@@H]1C2=C(CC(C)(C)CC2=O)Nc2n[nH]c(C(F)(F)F)c21 | 13 nM |

----------
Here the recorded pIC50 is given for each entry.
Target: GSK3β (Homo sapiens (Human), UniProt P49841)
Assay: biochemical
pIC50: −log10 of the molar value.

| Compound | System Under Test | pIC50 |
| --- | --- | --- |
| COc1cccc(C2C3=C(CC(C)(C)CC3=O)Nc3n[nH]c(C)c32)c1 (stereo not shown) | GSK3β (Homo sapiens (Human), UniProt P49841) | 6.00 to 7.00 |
| Cc1[nH]nc2c1C(c1ccc(F)cc1)C1=C(CC(C)(C)CC1=O)N2 (stereo not shown) | GSK3β (Homo sapiens (Human), UniProt P49841) | 5.30 to 6.00 |
| Cc1[nH]nc2c1C(C)(c1cccc(C#N)c1)C1=C(CC(C)(C)CC1=O)N2 (racemic) | GSK3β (Homo sapiens (Human), UniProt P49841) | > 7.00 |
| CC1(C)CC(=O)C2=C(C1)Nc1n[nH]c(C3CC3)c1C2(C)c1cccc(C#N)c1 (racemic) | GSK3β (Homo sapiens (Human), UniProt P49841) | > 7.00 |

Source listed as patent US9096594B2.
